# Tested on: OVCAR3
# Test summary: Cell proliferation Ex.3
# Assay type: cell-based
# Study conditions: Homo sapiens, OVCAR-3; OVCAR3, 168 h
pIC50: −log10 of the molar value.

# Chemical string, pIC50
rows = [
    ("C#C[C@]1(CO)O[C@@H](n2cc(F)c(N)nc2=O)C[C@@H]1O", "< 5.00"),
]

====

# Tested on: SF295
# Test summary: Cell proliferation Ex.3
# Assay type: cell-based
# Study conditions: Homo sapiens, SF-295; SF295, 120 h

# Compound, Test system, IC50
rows = [
    ("C#C[C@]1(CO)O[C@@H](n2cc(F)c(N)nc2=O)C[C@@H]1O [compound 9]", "SF295", "> 10 µM"),
]
